Where these numbers come from: ChEMBL document CHEMBL1828572

Ratio values for the molecules below.
Experiment: Selectivity ratio of 5-HT1A receptor to guinea pig sigma1 receptor
resultType: Ratio

| molecule | observedValue |
| --- | --- |
| CCCCCCCCN1CCC2(CC1)OC(OC)Cc1c2cnn1-c1ccccc1 (stereo not given) | 1000 |
| COC1Cc2c(cnn2-c2ccccc2)C2(CCN(CC(C)C)CC2)O1 (stereo not given) | 1000 |
| COC1Cc2c(cnn2-c2ccccc2)C2(CCN(CCC(C)C)CC2)O1 (stereo not given) | 1000 |
| COC1Cc2c(cnn2-c2ccccc2)C2(CCN(Cc3ccccc3)CC2)O1 (stereo not given) | 1000 |
| COC1Cc2c(cnn2-c2ccccc2)C2(CCN(CC3CCCCC3)CC2)O1 (stereo not given) | 1000 |

----------
pKi values for the compounds below.
Assay: Displacement of [3H]ditolylguanidine from rat liver sigma 2 receptor by scintillation counting
pKi: −log10 of the molar value.

| compound | pKi |
| --- | --- |
| COC1Cc2c(cnn2-c2ccccc2)C2(CCNCC2)O1 (centres undefined) | < 6.00 |
| OC1Cc2c(cnn2-c2ccccc2)C2(CCN(Cc3ccccc3)CC2)O1 (centres undefined) | < 6.00 |
| c1ccc(CCCN2CCC3(CC2)OCCc2c3cnn2-c2ccccc2)cc1 | 6.99 |
| CC(C)CCN1CCC2(CC1)OCCc1c2cnn1C | < 6.00 |
| C=C(C)CCN1CCC2(CC1)OCCc1c2cnn1C | < 6.00 |
| CCCN1CCC2(CC1)OC(OC)Cc1c2cnn1-c1ccccc1 (centres undefined) | < 6.00 |
| COC1Cc2c(cnn2-c2ccccc2)C2(CCN(Cc3ccc(F)cc3)CC2)O1 (centres undefined) | 6.16 |
| Cn1ncc2c1CCOC21CCN(CCCc2ccccc2)CC1 | < 6.00 |
| COC1Cc2c(cnn2-c2ccccc2)C2(CCN(CCC(C)C)CC2)O1 (centres undefined) | 6.50 |
